Data origin, for the record: PubChem BioAssay (EPA / NIEHS)

# experimental-system: Peroxisome proliferator-activated receptor gamma (Homo sapiens) (UniProt P37231)
# Sequence (P37231 whole entry, looked up): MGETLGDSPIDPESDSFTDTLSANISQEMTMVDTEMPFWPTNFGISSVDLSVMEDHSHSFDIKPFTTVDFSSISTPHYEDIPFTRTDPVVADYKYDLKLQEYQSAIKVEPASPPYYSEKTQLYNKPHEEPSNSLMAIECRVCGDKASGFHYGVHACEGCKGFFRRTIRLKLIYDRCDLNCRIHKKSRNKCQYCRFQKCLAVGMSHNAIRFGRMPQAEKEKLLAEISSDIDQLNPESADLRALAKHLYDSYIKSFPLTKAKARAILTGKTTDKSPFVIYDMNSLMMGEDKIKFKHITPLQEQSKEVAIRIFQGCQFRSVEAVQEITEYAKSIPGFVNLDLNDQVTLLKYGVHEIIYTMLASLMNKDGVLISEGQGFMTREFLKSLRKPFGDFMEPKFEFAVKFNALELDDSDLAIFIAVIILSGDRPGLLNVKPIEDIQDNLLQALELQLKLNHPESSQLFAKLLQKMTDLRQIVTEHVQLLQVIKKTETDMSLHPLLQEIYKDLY
# assay-name: OT_PPARg_PPARgSRC1_0480: Odyssey Thera (OT) 8-hour Protein-Complementation Assay for Peroxisome Proliferator-activated Receptor Gamma / SRC-1 Co-activator (AID 2283387);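 note: nuclear to cytoplasmic split Venus YFP fluorescence ratio reporting PPARg SRC-1 interaction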
Results filed as inconclusive are left out. The source made the active and inactive calls. Rule for the calls: active = hit-call score of the fitted dose curve at least 0.9, where 1 is the maximum; inconclusive = response in the unintended direction; inactive = score below 0.9.
quantity-measured: outcome

{"columns": ["compound", "quantity-measured", "recorded-result"],
 "data": [
  ["Nc1ccc(N)cc1", "outcome", "inactive"],
  ["CC(O)(CS(=O)(=O)c1ccc(F)cc1)C(=O)Nc1ccc(C#N)c(C(F)(F)F)c1 (stereo unspecified)", "outcome", "inactive"],
  ["N#CS", "outcome", "inactive"],
  ["Clc1cccc(Cl)c1", "outcome", "inactive"],
  ["CCOCn1c(-c2ccc(Cl)cc2)c(C#N)c(Br)c1C(F)(F)F", "outcome", "inactive"]
]}

(Q) Find the measured outcome of "CN(N=O)C(N)=O" with Peroxisome proliferator-activated receptor gamma (Homo sapiens) (UniProt P37231) as test system.
(A) inactive

(Q) Find the measured outcome of "O=C(O)C1(c2ccc3c(c2)OC[C@H](Cc2ccc(-c4ccccc4)cc2)[C@H]3O)CCCC1" with Peroxisome proliferator-activated receptor gamma (Homo sapiens) (UniProt P37231) as test system.
(A) inactive

(Q) Find the measured outcome of "O=C(CCl)Nc1ccccc1" with Peroxisome proliferator-activated receptor gamma (Homo sapiens) (UniProt P37231) as test system.
(A) inactive

(Q) Find the measured outcome of "Clc1cccc(Cl)c1Cl" with Peroxisome proliferator-activated receptor gamma (Homo sapiens) (UniProt P37231) as test system.
(A) inactive

(Q) Find the measured outcome of "C=CCN=C=S" with Peroxisome proliferator-activated receptor gamma (Homo sapiens) (UniProt P37231) as test system.
(A) inactive

(Q) Find the measured outcome of "O=C(O)COc1cc(Cl)c(Cl)cc1Cl" with Peroxisome proliferator-activated receptor gamma (Homo sapiens) (UniProt P37231) as test system.
(A) inactive

###

# assay-name: ATG_TGFb_CIS: Attagene CIS-FACTORIAL HepG2 Assay for human Transforming Growth Factor (TGF) (AID 2282967)
# condition: HepG2 Attagene CIS TGFb reporter, mRNA transcription; actives raise or lower the signal
The source made the active and inactive calls. The calls were made as follows: active = hit-call score of the fitted dose curve at least 0.9, where 1 is the maximum; inactive = score below 0.9.
Please answer using one outcome listed in active, inactive

(Q) Test call, this molecule: "CCN(N=O)C(N)=O"
(A) inactive

(Q) Test call, this molecule: "O=C(CCl)NCO"
(A) active

(Q) Test call, this molecule: CC(C)[C@@H](Nc1ccc(C(F)(F)F)cc1Cl)C(=O)OC(C#N)c1cccc(Oc2ccccc2)c1 (some centres not stated)
(A) inactive

(Q) Test call, this molecule: "CC(C)[N+](=O)[O-]"
(A) inactive

(Q) Test call, this molecule: "CC(C)(C)c1ccc(CCOc2ncnc3ccccc23)cc1"
(A) inactive

(Q) Test call, this molecule: "CCN(CC)C(=O)C(Cl)=C(C)OP(=O)(OC)OC"
(A) inactive

(Q) Test call, this molecule: "Nc1cccnc1"
(A) inactive

(Q) Test call, this molecule: "O=C(NC(=O)c1c(F)cccc1F)Nc1ccc(Cl)cc1"
(A) inactive

(Q) Test call, this molecule: "Oc1c(Cl)cc(Cl)cc1Cl"
(A) inactive

(Q) Test call, this molecule: CCCSP(=S)(OCC)Oc1ccc(Cl)cc1Cl (configuration not stated)
(A) active

(Q) Test call, this molecule: "Clc1cc(C(Cl)(Cl)Cl)cnc1Cl"
(A) inactive

(Q) Test call, this molecule: "Cc1ccc(CCl)cc1"
(A) inactive

(Q) Test call, this molecule: "C[C@@H]1O[C@@H](O[C@H]2C[C@@H](O)[C@]3(CO)[C@H]4[C@H](O)C[C@]5(C)[C@@H](C6=CC(=O)OC6)CC[C@]5(O)[C@@H]4CC[C@]3(O)C2)[C@H](O)[C@H](O)[C@H]1O"
(A) inactive

(Q) Test call, this molecule: "O=C(O)C1(c2ccc3c(c2)OC[C@H](Cc2ccc(-c4ccccc4)cc2)[C@H]3O)CCCC1"
(A) inactive

(Q) Test call, this molecule: "O=c1[nH]c2ccccc2n1C1CCN(CCCC(c2ccc(F)cc2)c2ccc(F)cc2)CC1"
(A) inactive

(Q) Test call, this molecule: "O=C(N[C@H]1CN2CCC1CC2)c1ccc2c(c1)OCCO2"
(A) inactive

###

# assay-name: CCTE_Shafer_MEA_dev_bursting_electrodes_number: CCTE's Neural Network Formation Assay for Number of Bursting Electrodes, Shafer Lab (AID 2284043)
Records with an inconclusive call do not appear. The source made the active and inactive calls. Rule for the calls: active = hit-call score of the fitted dose curve at least 0.9, where 1 is the maximum; inconclusive = response in the unintended direction; inactive = score below 0.9.
Please answer using one outcome listed in active, inactive

Example cases with answers are listed next.
{"columns": ["compound", "category"],
 "data": [
  ["C=CC(F)(C(F)(F)F)C(F)(F)C(F)(F)F (stereo not drawn)", "inactive"],
  ["CCOCn1c(-c2ccc(Cl)cc2)c(C#N)c(Br)c1C(F)(F)F", "active"],
  ["FC(F)OCC(F)(F)C(F)(F)F", "inactive"],
  ["C=CCOC(F)(C(F)(F)F)C(F)(F)F", "inactive"],
  ["NC(=O)c1ccc(N)nc1", "active"]
]}

(Q) Test call, this compound: "CNC(=O)CSP(=O)(OC)OC"
(A) inactive

(Q) Test call, this compound: "Cc1ccccc1OP(=O)(Oc1ccccc1C)Oc1ccccc1C"
(A) active

(Q) Test call, this compound: "CC(=O)C(F)(F)C(F)(F)F"
(A) inactive

###

# Read-out: Matrix Metallopeptidase 9 (MMP9), MMP9 (gene 4318)
# assay-name: BSK_KF3CT_MMP9: BioMAP Diversity Plus: KF3CT Assay for Matrix Metallopeptidase 9 (MMP9) Biomarker Activity (AID 2283074)
# condition: primary human keratinocytes with fibroblasts; actives raise or lower the signal
Calls of active or inactive are those of the source. The calls were made as follows: active = hit-call score of the fitted dose curve at least 0.9, where 1 is the maximum; inactive = score below 0.9.
Please answer using one outcome listed in active, inactive

Example cases with answers are listed next.
{"columns": ["compound", "category"],
 "data": [
  ["CN(C)C(=S)S", "inactive"],
  ["CCOC(=O)CCN(SN(C)C(=O)Oc1cccc2c1OC(C)(C)C2)C(C)C", "inactive"],
  ["Cc1cc(Cl)ccc1OC(C)C(=O)O (stereo not drawn)", "inactive"]
]}

(Q) Test call, this compound: "[Cl][Sn]([c]1ccccc1)([c]1ccccc1)[c]1ccccc1"
(A) active

(Q) Test call, this compound: "O=C1C=CC(=O)c2ccccc21"
(A) active

(Q) Test call, this compound: "CCCCCCCCCCCCN(C)C"
(A) inactive

(Q) Test call, this compound: N#CCCC(Br)(C#N)CBr (stereo not drawn)
(A) active

(Q) Test call, this compound: "Cc1cc(C)cc(C)c1"
(A) inactive

###

# assay-name: ATG_TGFb_CIS: Attagene CIS-FACTORIAL HepG2 Assay for human Transforming Growth Factor (TGF) (AID 2282967)
# condition: HepG2 Attagene CIS TGFb reporter, mRNA transcription; actives raise or lower the signal
Active and inactive are the calls of the source. How the source made its calls: active means hit-call score of the fitted dose curve at least 0.9, where 1 is the maximum; inactive means score below 0.9.
Please answer using one outcome listed in y (active), n (inactive)

Example cases with answers are listed next.
{"columns": ["molecule", "category"],
 "data": [
  ["BrCC(Br)c1ccccc1 (stereo unspecified)", "n"],
  ["c1cc[c]([Sb]([c]2ccccc2)[c]2ccccc2)cc1", "y"],
  ["Nc1ccc(-c2ccccc2)cc1", "n"],
  ["CCCCC(CC)COC(=O)Cl (stereo unspecified)", "n"],
  ["NNCCO", "n"]
]}

(Q) Test call, this molecule: "CCCCCCCCCCCCBr"
(A) n

(Q) Test call, this molecule: "Cl[C@H]1OCCO[C@@H]1Cl"
(A) n

(Q) Test call, this molecule: "OC[C@@H](O)[C@H]1O[C@@H]2O[C@H](C(Cl)(Cl)Cl)O[C@@H]2[C@H]1O"
(A) n

(Q) Test call, this molecule: "Clc1cnc(Oc2ccc(Oc3ncc(Cl)cc3Cl)cc2)c(Cl)c1"
(A) n

(Q) Test call, this molecule: "CCOP(=O)(OCC)SCCSCC"
(A) n

(Q) Test call, this molecule: "CC(C)(c1ccccc1)c1cc(-n2nc3ccccc3n2)c(O)c(C(C)(C)c2ccccc2)c1"
(A) n

(Q) Test call, this molecule: "C[N+](C)(C)Cc1ccccc1"
(A) n

(Q) Test call, this molecule: "CCCCCCCCCCCCOS(=O)(=O)O"
(A) n

(Q) Test call, this molecule: "O=C(Cl)OCCOCCOC(=O)Cl"
(A) n

(Q) Test call, this molecule: "O=C(NC(=O)c1c(F)cccc1F)Nc1cc(Cl)c(F)c(Cl)c1F"
(A) n

(Q) Test call, this molecule: "ClCCN1CCOCC1"
(A) n

(Q) Test call, this molecule: "ClCCCCl"
(A) n

(Q) Test call, this molecule: "O=C(CBr)c1ccc(O)cc1"
(A) n

(Q) Test call, this molecule: "Cc1cc(Cl)ccc1N"
(A) n

(Q) Test call, this molecule: "O=NN1CCOCC1"
(A) n

(Q) Test call, this molecule: "CCCCOP(=O)(CCCC)OCCCC"
(A) n

(Q) Test call, this molecule: "COc1ccccc1N"
(A) n

(Q) Test call, this molecule: "O=[N+]([O-])c1c2ccccc2cc2ccccc12"
(A) n

(Q) Test call, this molecule: "CC(c1ccc(O)cc1)c1ccc(O)cc1"
(A) n

(Q) Test call, this molecule: "N#CCC#N"
(A) n

(Q) Test call, this molecule: "Fc1cccc(Cl)c1CCl"
(A) n

(Q) Test call, this molecule: "CS(=O)(=O)c1ccc(C(=O)C2C(=O)CCCC2=O)c(Cl)c1COCC(F)(F)F"
(A) n

(Q) Test call, this molecule: "COc1ccc([N+](=O)[O-])cc1O"
(A) n

(Q) Test call, this molecule: "O=C(CCl)Nc1ccccc1"
(A) n

(Q) Test call, this molecule: "CCN(CCO)CCO"
(A) n

(Q) Test call, this molecule: "CC(c1ccccc1)(c1ccc(O)cc1)c1ccc(O)cc1"
(A) n
